B1: CFHR2 (parent)
chain: FVENGHSESSGQTHLEGDTVQIIC

variants of: B1; experiment: protein stability index of a GFP-peptide fusion (GPS, HEK-293T) (PSI 1-6); higher = more stable; conditions: c terminus: a fixed tail appended;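 also: lentivirally expressed fusions sorted by FACS into six bins by GFP to DsRed ratio, PSI derived from sequencing read proportions per bin multiplied by bin number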
Please provide measured protein stability index for the entries that follow.
Simply state the number, no unit and no words.

Measured protein stability index of Q12F : 2.23

Memo: Q12K , reported protein stability index: 2.05

Field protein stability index (entry G11M ) reads 2.03

Noted for S9K : its protein stability index reads 2.76

Summary for this variant, L15G : protein stability index is 2.9

GET /value?item= Q12G &field=protein stability index returns 3.2

Briefly, protein stability index measured for T19C : 2.84

The measured protein stability index associated with S7R reads 2.29

protein stability index in this record for G5E : 4.09

Lab book: protein stability index of G5A noted as 2.77

// field: protein stability index; key: V20K ; value = 3.06

// V2D : protein stability index value = 4.19

Measured protein stability index of F1E : 4.95

Recorded protein stability index (variant G11H ): 2.67

What the record says about T13R : protein stability index is 2.47

# variant E3V ; its protein stability index = 1.54

Reported protein stability index of E16L : 2.59

According to the records, this variant C24G displays protein stability index of 3.8

protein stability index for Q12P is 3.19

Query D18C yields protein stability index of 1.65

Looking up E8L , I found its protein stability index recorded as 1.81

Record summary for H14S : reported protein stability index = 3.02
